TARGET UNDER TEST: T1, CRBN, Q96SW2;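 note: pooled lentiviral library of zinc finger degron-EGFP fusions in mCherry-positive Jurkat cells, FACS-sorted after compound exposure, with degron abundance counted by next-generation sequencing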
T1 chain: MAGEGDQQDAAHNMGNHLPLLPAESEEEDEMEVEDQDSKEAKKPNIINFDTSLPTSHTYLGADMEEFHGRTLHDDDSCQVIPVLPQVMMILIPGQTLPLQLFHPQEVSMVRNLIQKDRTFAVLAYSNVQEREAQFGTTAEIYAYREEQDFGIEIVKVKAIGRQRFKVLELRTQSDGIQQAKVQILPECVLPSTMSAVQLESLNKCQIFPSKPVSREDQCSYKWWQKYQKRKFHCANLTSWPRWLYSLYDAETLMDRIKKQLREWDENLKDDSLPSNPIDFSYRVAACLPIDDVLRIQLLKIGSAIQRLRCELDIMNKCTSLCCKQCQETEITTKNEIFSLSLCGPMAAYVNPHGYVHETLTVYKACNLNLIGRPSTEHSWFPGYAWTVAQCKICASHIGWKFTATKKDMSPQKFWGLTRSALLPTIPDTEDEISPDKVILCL
ASSAY PROCEDURE: log2 fold change of degron read counts, EGFP-low vs EGFP+ sorted cells (limma voom), compound-induced degradation; higher = more compound-induced degradation of the degron-EGFP fusion; degrons are variants of IKZF1/3 zinc finger 2; compound dose not given here
RUN PARAMETERS: Jurkat; 18 h; compound: compound 19 (5-tert-butyl-thalidomide)
Whole data set: some 8,300 sequences, median “log2 fold change of degron read counts, EGFP-low vs EGFP+ sorted cells (limma voom), compound-induced degradation” near -1.1, cut for the highest 2% near 3.2. This is one part of a sample in which the highest values are shown more often than they occur.
Category | rule: reported log2 fold change of degron read counts within range, see bottom (below -2), middle (-2 to below 2), top (2 or more)

1) FNCEVCGARFTQKGNLLRHIKL [46F_47N_49E_50V_52G_53A_54R_55F_67L_, Q9UKT9]    top
2) FVCEVCGARFTQKGNLLRHIKL [46F_47V_49E_50V_52G_53A_54R_55F_67L_, Q9UKT9]    middle
3) FMCDVCGAIFTQKGNLLRHIKL [46F_47M_49D_50V_52G_53A_54I_55F_67L_, Q9UKT9]    bottom
4) FKCPICGHRFTQKGNLLRHIKL [46F_47K_49P_50I_52G_53H_54R_55F_67L_, Q9UKT9]    bottom
5) FYCPICGAHFTQKGNLLRHIKL [46F_47Y_49P_50I_52G_53A_54H_55F_67L_, Q9UKT9]    top
6) FGCEVCGADFTQKGNLLRHIKL [46F_47G_49E_50V_52G_53A_54D_55F_67L_, Q9UKT9]    middle
7) FCCPICGRMFTQKGNLLRHIKL [46F_47C_49P_50I_52G_53R_54M_55F_67L_, Q9UKT9]    middle
8) FCCEICGADFTQKGNLLRHIKL [46F_47C_49E_50I_52G_53A_54D_55F_67L_, Q9UKT9]    middle
9) FVCPICGAHFTQKGNLLRHIKL [46F_47V_49P_50I_52G_53A_54H_55F_67L_, Q9UKT9]    middle
10) LYCPICGFTCTQKGNLLRHIKL [46L_47Y_49P_50I_52G_53F_54T_55C_67L_, Q9UKT9]    top
11) FRCPICGHIFTQKGNLLRHIKL [46F_47R_49P_50I_52G_53H_54I_55F_67L_, Q9UKT9]    bottom
12) FGCEVCGALFTQKGNLLRHIKL [46F_47G_49E_50V_52G_53A_54L_55F_67L_, Q9UKT9]    top
13) FACEQCGAKFTQKGNLLRHIKL [46F_47A_49E_50Q_52G_53A_54K_55F_67L_, Q9UKT9]    middle
14) FRCNQCGHHFTQKGNLLRHIKL [46F_47R_49N_50Q_52G_53H_54H_55F_67L_, Q9UKT9]    bottom
15) FGCPICGAHFTQKGNLLRHIKL [46F_47G_49P_50I_52G_53A_54H_55F_67L_, Q9UKT9]    top
16) FLCNVCGAAFTQKGNLLRHIKL [46F_47L_49N_50V_52G_53A_54A_55F_67L_, Q9UKT9]    middle
17) FACEVCGARFTQKGNLLRHIKL [46F_47A_49E_50V_52G_53A_54R_55F_67L_, Q9UKT9]    top
